Doc: threshold 4 (exclusive). Items with logP beneath it return condition met; others return condition not met.

{"smi": "O=[N+]([O-])c1cc(Cl)c(O)c(Cl)c1", "class": "condition met"}
{"smi": "O=C(O)Cc1ccc(C2CCCCC2)cc1", "class": "condition met"}
{"smi": "CC(C)c1cccc(C2C(=O)c3ccccc3C2=O)c1", "class": "condition not met"}
{"smi": "O=C(O)Cc1ccc(I)cc1", "class": "condition met"}
{"smi": "Cc1cc(C)c(C)c(C(=O)O)c1C", "class": "condition not met"}

Now examine the next entry.
Exercise: Would you kindly verify if logP of Cc1cc(C)c(C(=O)O)c(C)c1 is strictly less than 4?
Key: condition met

----------
metric: logP

{"smi": "O=C(O)CCCCCC(=O)O", "logP": 0.61}
{"smi": "O=C(O)Cc1ccc([N+](=O)[O-])cc1", "logP": 1.54}
{"smi": "CC(C)c1ccc(C2C(=O)c3ccccc3C2=O)cc1", "logP": 4.43}
{"smi": "O=C1c2ccccc2C(=O)C1c1cc(Cl)cc(Cl)c1", "logP": 4.32}

Exercise: Please indicate logP recorded for COc1ccc(C2C(=O)c3ccccc3C2=O)cc1
Key: 2.88

Exercise: Please indicate logP recorded for CC(C)(C)c1ccc(C2C(=O)c3ccccc3C2=O)cc1
Key: 4.88

Exercise: Please indicate logP recorded for CC(C)(C)c1cccc(C2C(=O)c3ccccc3C2=O)c1
Key: 4.88

Exercise: Please indicate logP recorded for O=C1c2ccccc2C(=O)C1c1cccc(Cl)c1
Key: 3.61

Exercise: Please indicate logP recorded for CCc1ccc(C2C(=O)c3ccccc3C2=O)cc1
Key: 3.92

Exercise: Please indicate logP recorded for O=C1c2ccccc2C(=O)C1c1ccc(-c2ccccc2)cc1
Key: 4.79

Exercise: Please indicate logP recorded for CCc1cc(CC)cc(C2C(=O)c3ccccc3C2=O)c1
Key: 4.94

Exercise: Please indicate logP recorded for CCCCCCC(=O)O
Key: 2.42

Exercise: Please indicate logP recorded for O=C(O)c1cc([N+](=O)[O-])ccc1O
Key: 1.98

Exercise: Please indicate logP recorded for O=[N+]([O-])c1cc(Br)c(O)c(Br)c1
Key: 3.07

Exercise: Please indicate logP recorded for O=C1c2ccccc2C(=O)C1c1ccc(Cl)cc1
Key: 3.61

Exercise: Please indicate logP recorded for Cc1ccc(C(=O)O)c(C)c1
Key: 3.01

----------
As shown below, each of these molecules has a reported logP value.
Respond numerically, and do not add a unit to the figure.

{"smi": "O=C1c2ccccc2C(=O)C1c1ccc(C(F)(F)F)cc1", "logP": 3.78}

Exercise: Please indicate logP recorded for CCc1cccc(C2C(=O)c3ccccc3C2=O)c1
Key: 3.92

----------
Classify by measured logP: 1 (yes) if it is equal to or exceeds 3, 0 (no) if it is smaller.

As a guide, the following entries are already answered.
{"smi": "CC(C)(C)c1cc(C2C(=O)c3ccccc3C2=O)cc(C(C)(C)C)c1", "class": "1 (yes)"}
{"smi": "CCC(C)(C)c1ccc(CC(=O)O)cc1", "class": "1 (yes)"}
{"smi": "O=C(O)Cc1ccccc1", "class": "0 (no)"}
{"smi": "CCCCCCc1ccc(CC(=O)O)cc1", "class": "1 (yes)"}
{"smi": "CC(C)c1cc(C(C)C)cc(C2C(=O)c3ccccc3C2=O)c1", "class": "1 (yes)"}
{"smi": "O=C1c2ccccc2C(=O)C1c1cccc(C(F)(F)F)c1", "class": "1 (yes)"}

Now examine the next entry.
Exercise: Does CCCCCCCCCCCC(=O)O have a reported logP of at least 3?
Key: 1 (yes)

----------
Assign a class from recorded logP; defined classes: lo (below 3), med (3 to below 4), hi (4 or more)

As a guide, the following entries are already answered.
{"smi": "CCCCCc1ccc(CC(=O)O)cc1", "class": "med"}
{"smi": "CCCCCCCCCCC(=O)O", "class": "hi"}
{"smi": "O=C1c2ccccc2C(=O)C1c1ccc(Br)cc1", "class": "med"}
{"smi": "COc1cc(OC)cc(C2C(=O)c3ccccc3C2=O)c1", "class": "lo"}
{"smi": "Cc1cccc(C2C(=O)c3ccccc3C2=O)c1", "class": "med"}

Exercise: Just checking, what class would you give CCCCCCCCC(=O)O here?
Key: med

Exercise: Just checking, what class would you give Cc1ccc(C2C(=O)c3ccccc3C2=O)cc1 here?
Key: med

----------
metric: logP
Respond numerically, and do not add a unit to the figure.

{"smi": "CCCCc1ccc(CC(=O)O)cc1", "metric": "logP", "endpoint_value": 3.25}
{"smi": "Cc1cc(C)cc(C2C(=O)c3ccccc3C2=O)c1", "metric": "logP", "endpoint_value": 4.02}
{"smi": "COc1cccc(C2C(=O)c3ccccc3C2=O)c1", "metric": "logP", "endpoint_value": 2.88}

Exercise: Please indicate logP recorded for CCCc1ccc(CC(=O)O)cc1
Key: 2.75

Exercise: Please indicate logP recorded for CCCCCCCCc1ccc(C2C(=O)c3ccccc3C2=O)cc1
Key: 6.93

Exercise: Please indicate logP recorded for O=C(O)Cc1ccc(C2CCCC2)cc1
Key: 3.44

Exercise: Please indicate logP recorded for CCCOc1ccc(CC(=O)O)cc1
Key: 2.31
